System: HIPK2
Settings: concentration: 1 μM,replicates: in singlicate; n = 1;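 further: KINOMEscan kinase panel screen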
ENDPOINT NAME: %Inh

Q: Determine its reported %Inh: Cc1n[nH]c2ccc(-c3cc(OC[C@@H](N)Cc4ccccc4)cnc3-c3ccoc3)cc12.O=C(O)C(F)(F)F.O=C(O)C(F)(F)F [GSK507358]
A: 11%

Q: Determine its reported %Inh: O=C(NCCCN1CCOC1=O)c1cnc(NCc2cc(Cl)ccc2Cl)nc1NC1CCCC1
A: 15%

Q: Determine its reported %Inh: C[C@@H]1CCN(C(=O)CC#N)C[C@@H]1N(C)c1ncnc2[nH]ccc12
A: 0%

----------
// %Inh lookup, one value per entry
Test system: DMPK
Details: concentration: 1 μM,replicates: in singlicate; n = 1
Please reply with the bare figure in % and do not write the unit itself.

| MOLECULE | SUBJECT OF TEST | VAL |
| --- | --- | --- |
| C[C@@H](Oc1cc(-c2cnn(C3CCNCC3)c2)cnc1N)c1c(Cl)ccc(F)c1Cl | DMPK | 22 |
| Cl.Oc1cc(-c2nc(-c3ccccc3)[nH]c2-c2ccncc2)ccc1Cl | DMPK | 0 |

Attention now shifts to the item below.
Q: Determine its reported %Inh: Cc1ccc2c(-c3ccncc3)c(-c3ccc(F)cc3)nn2c1.Cl
A: 11

----------
System: VPS34
Construct: gene PIK3C3
Settings: concentration: 1 μM,replicates: in singlicate; n = 1
ENDPOINT NAME: %Inh (%)
Please reply with the bare figure in % and do not write the unit itself.

| COMPOUND | SUBJECT OF TEST | %Inh (%) |
| --- | --- | --- |
| Cl.Cl.NC[C@H](Cc1ccc(C(F)(F)F)cc1)NC(=O)c1cc(Br)c(-c2ccnc3[nH]ccc23)s1 [GSK1487252] | VPS34 | 0 |
| NC(=O)c1cc(-c2ccccc2)cc2c(C3CCNCC3)c[nH]c12 [GSK301362] | VPS34 | 0 |
| CC(C)N1C(=O)Cc2cc(Nc3ncc(C(F)(F)F)c(NCc4cccc(S(C)(=O)=O)c4)n3)ccc21 | VPS34 | 55 |
| CN(C)CCOc1ccc(-c2cc(-c3c[nH]nc3-c3ccccn3)ccn2)cc1 [GW835314] | VPS34 | 0 |
| O=C(NCCCN1CCOC1=O)c1cnc(NCc2cc(Cl)ccc2Cl)nc1NC1CCCC1 | VPS34 | 0 |
| Cl.Cl.NC[C@H](CC1CCCCC1)NC(=O)c1cc(Br)c(-c2ccnc3[nH]ccc23)s1 [GSK1581427] | VPS34 | 0 |
| Cc1cc2cn[nH]c2cc1-c1cccc2c(N)c(C(N)=O)nnc12 | VPS34 | 19 |
| COc1ccc(C[C@@H](CN)NC(=O)c2cc(Br)c(-c3ccnc4[nH]ccc34)s2)cc1.Cl.Cl [GSK1389063] | VPS34 | 35 |

Attention now shifts to the item below.
Q: Determine its reported %Inh: C[C@@H](Oc1cc(-c2cnn(C3CCNCC3)c2)cnc1N)c1c(Cl)ccc(F)c1Cl
A: 0

----------
Tested on: RIPK2
Conditions: concentration: 1 μM,replicates: in singlicate; n = 1
ENDPOINT NAME: %Inh (%)
Please reply with the bare figure in % and do not write the unit itself.

Reference set (6 entries):
| COMPOUND | SUBJECT OF TEST | %Inh, % |
| --- | --- | --- |
| Cc1cc(C(=O)Nc2ccc(Oc3ccc4nc(NC(=O)C5CC5)cn4n3)cc2)nn1-c1ccccc1 | RIPK2 | 24 |
| CN(C)CC(O)COc1ccc(Nc2nccc(-c3cnn4nc(N5CCOCC5)ccc34)n2)cc1 (centres unmarked) | RIPK2 | 0 |
| Cc1ccc(-n2nc(C(C)(C)C)cc2NC(=O)Nc2ccc(OCCN3CCOCC3)c3ccccc23)cc1 | RIPK2 | 0 |
| Cl.Oc1cc(-c2nc(-c3ccccc3)[nH]c2-c2ccncc2)ccc1Cl | RIPK2 | 78 |
| NC(=O)c1cc(-c2ccccc2)cc2c(C3CCNCC3)c[nH]c12 | RIPK2 | 7 |
| CC(C)N1C(=O)Cc2cc(Nc3ncc(C(F)(F)F)c(NCc4cccc(S(C)(=O)=O)c4)n3)ccc21 | RIPK2 | 4 |

Q: # return %Inh of C=CC(=O)Nc1cc2c(Nc3ccc(F)c(Cl)c3)ncnc2cc1OCCCN1CCOCC1 (system: RIPK2)
A: 53

Q: # return %Inh of CCN(CC)CCOc1ccc(Nc2ncc3cc(-c4c(Cl)cccc4Cl)c(=O)n(C)c3n2)cc1 (system: RIPK2)
A: 99.7
